Provide the recorded interaction score for the entries that follow.
study_system: T1, 4H2330-AA
T1 chain: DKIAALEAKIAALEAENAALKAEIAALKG
assay_overview: two-hybrid library CCmax;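 further: natural log of median RNA to DNA barcode read ratio; higher means stronger binding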
stated_conditions: mean of both orientations
Answers are plain numbers.

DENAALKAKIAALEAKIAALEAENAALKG [4H1828-AA]
-1.45
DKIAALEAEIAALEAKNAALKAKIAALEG [4H2109-AA]
0.0427
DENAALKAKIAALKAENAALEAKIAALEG [4H1877-AA]
-1.51
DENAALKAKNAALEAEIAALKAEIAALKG [4H1930-AA]
-1.7
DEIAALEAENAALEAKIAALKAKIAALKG [4H174-AA]
0.552

Give me interaction score for each of these binders, listed below.
1. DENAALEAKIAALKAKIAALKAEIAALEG [4H1385-AA]
2. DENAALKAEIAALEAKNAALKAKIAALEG [4H1597-AA]
3. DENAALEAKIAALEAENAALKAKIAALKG [4H1310-AA]
4. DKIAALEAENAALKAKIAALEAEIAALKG [4H2274-AA]
5. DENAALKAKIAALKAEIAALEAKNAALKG [4H1864-AA]

Result:
[-1.41, -1.59, 1.35, -1.13, -1.49]

Values were extracted from paper PMC10397247.
